Assay: in vitro
Settings: mouse, plasma
hey, just use MET if measured fraction unbound at 5 h is less than 0.03, otherwise NOT MET

Please let me know if Cc1ncsc1C(=O)N(Cc1cc(=O)[nH]c2c(F)cccc12)c1cccc(Cl)c1 shows fraction unbound at 5 h below 0.03.
NOT MET

Please let me know if CC(C)[C@H](C(=O)Nc1nccs1)c1ccc(Cl)cc1 shows fraction unbound at 5 h below 0.03.
MET

Please let me know if Cc1nccc(-c2ccc(-c3nc4ccncc4c(O)c3C#N)cc2)c1Cl shows fraction unbound at 5 h below 0.03.
MET

Please let me know if FC(F)(F)Oc1ccc(-c2nnc(CCCCc3ccc4cccnc4n3)o2)cc1Cl shows fraction unbound at 5 h below 0.03.
MET

Please let me know if N#Cc1c(O)c2c(-c3ccc(-c4ccccc4O)cc3)csc2[nH]c1=O shows fraction unbound at 5 h below 0.03.
MET

Please let me know if COc1cc(Nc2nc3c(c(COC4CCCC4)n2)COCC3)ccc1-n1cnc(C)c1 shows fraction unbound at 5 h below 0.03.
MET

Please let me know if CC(C)[C@H](O)C(=O)N[C@@H](C)C(=O)N[C@@H]1C(=O)N(C)CCc2ccccc21 shows fraction unbound at 5 h below 0.03.
NOT MET

Please let me know if O=C1CCc2cc(-c3cncc4ccccc34)ccc2N1 shows fraction unbound at 5 h below 0.03.
NOT MET

Please let me know if O=C1N(c2ccccc2)c2ccccc2C1(Cc1ccncc1)Cc1ccncc1 shows fraction unbound at 5 h below 0.03.
NOT MET

Please let me know if Cc1cccc(-c2ccc(CNC(=O)CCCc3ccc4cccnc4n3)cc2)c1 shows fraction unbound at 5 h below 0.03.
MET
